Source listed as PubChem BioAssay (NCATS).

- METHOD NOTES: Quantitative high throughput screen for delayed death inhibitors of the malarial parasite plastid, 96 hour incubation (AID 488745); note: nearly all actives have a fitted effect of over 70% in size
- EXPERIMENTAL SETUP: Plasmodium falciparum growth; series mostly up to 28.7 µM
Records with an inconclusive call do not appear. The source made the active and inactive calls. Calls come from the whole dose curve; as a rule, active = well fitted inhibition curve with a large enough effect; inconclusive = small, poorly fitted or top-dose-only effect, or effect the other way; inactive = no such curve, though single readings can be large or run the other way.
Possible outcomes: active, inactive

{"columns": ["MOLECULE", "CLASS ASSIGNMENT"],
 "data": [
  ["CC(C)(C)c1onc(OCP(=O)(O)O)c1CC(N)C(=O)O (stereo not drawn)", "inactive"],
  ["CCN(CC)CCCC(C)Nc1c2ccc(Cl)cc2nc2ccc(OC)cc12 (stereo not drawn)", "active"],
  ["CCN(CC)CCNC(=O)c1cc(Cl)c(N)cc1OC", "inactive"],
  ["CN(C)CC[C@@H](c1ccc(Cl)cc1)c1ccccn1", "inactive"],
  ["NC1CCN(c2cccc(Cl)n2)CC1", "inactive"],
  ["CC(C)(C(=O)O)c1ccc(C(O)CCCN2CCC(C(O)(c3ccccc3)c3ccccc3)CC2)cc1 (stereo not drawn)", "inactive"],
  ["Nc1cc(=O)[nH]c(N)n1", "inactive"],
  ["CC[C@H]1CN2CCc3cc(OC)c(OC)cc3[C@@H]2C[C@@H]1C[C@H]1NCCc2cc(OC)c(OC)cc21", "active"],
  ["CN(C)CCOC(C)(c1ccccc1)c1ccccn1 (stereo not drawn)", "inactive"],
  ["NC(N)=NCCC[C@H](N)C(=O)O", "inactive"],
  ["CC(C)NC[C@H](O)c1ccc(O)c(O)c1", "inactive"],
  ["COc1ccc(Cl)cc1C(=O)NCCc1ccc(S(=O)(=O)NC(=O)NC2CCCCC2)cc1", "inactive"],
  ["CC1=C(CC(=O)O)c2cc(F)ccc2/C1=C\\c1ccc(S(C)=O)cc1 (stereo not drawn)", "inactive"],
  ["OCCN1CCN(CCCN2c3ccccc3Sc3ccc(Cl)cc32)CC1", "active"],
  ["CN(C)CCCN1c2ccccc2CCc2ccccc21", "inactive"],
  ["CN1CCN(C2Cc3ccccc3Sc3ccc(Cl)cc32)CC1 (stereo not drawn)", "inactive"],
  ["CNCC(O)c1ccc(O)c(O)c1 (stereo not drawn)", "inactive"],
  ["CC(C)C(=O)c1c(C(C)C)nn2ccccc12", "inactive"]
]}

###

- ASSAY TARGET: Glutathione peroxidase 1 (Homo sapiens)
- METHOD NOTES: Primary qHTS Assay for Inhibitors of Recombinant Selenoprotein Glutathione Peroxidase 1 (GPX1) (AID 1845191); note: nearly all actives have a fitted effect of over 65% in size
- EXPERIMENTAL SETUP: recombinant GPX1, GR-coupled NADPH fluorescence, 15 min; series mostly up to 48.8 µM
Records with an inconclusive call do not appear. Active and inactive are the calls of the source. Calls come from the whole dose curve; as a rule, active = well fitted inhibition curve with a large enough effect; inconclusive = small, poorly fitted or top-dose-only effect; inactive = flat fitted curve, though single readings scatter.
Possible outcomes: Yes for active, No for inactive

{"columns": ["MOLECULE", "ASSAY TARGET", "CLASS ASSIGNMENT"],
 "data": [
  ["OCC(CO)N[C@H]1C[C@](O)(CO)[C@@H](O)[C@H](O)[C@H]1O", "Glutathione peroxidase 1 (Homo sapiens)", "No"],
  ["O=C1Nc2ccc(Cl)cc2[C@@](C#CC2CC2)(C(F)(F)F)O1", "Glutathione peroxidase 1 (Homo sapiens)", "No"],
  ["OC[C@H]1O[C@@H](O[C@@H]2[C@@H](CO)O[C@](O)(CO)[C@H]2O)[C@H](O)[C@@H](O)[C@H]1O", "Glutathione peroxidase 1 (Homo sapiens)", "No"],
  ["Oc1cccc(O)c1", "Glutathione peroxidase 1 (Homo sapiens)", "No"],
  ["CS(=O)(=O)c1ccc([C@@H](O)[C@@H](CF)NC(=O)C(Cl)Cl)cc1", "Glutathione peroxidase 1 (Homo sapiens)", "No"],
  ["CC(C)(C(=O)O)c1ccc(C(O)CCCN2CCC(C(O)(c3ccccc3)c3ccccc3)CC2)cc1 (centres undefined)", "Glutathione peroxidase 1 (Homo sapiens)", "No"],
  ["CCOc1ccc2ccccc2c1C(=O)N[C@@H]1C(=O)N2[C@@H]1SC(C)(C)[C@@H]2C(=O)O", "Glutathione peroxidase 1 (Homo sapiens)", "No"],
  ["CCCCc1ncc(/C=C(\\Cc2cccs2)C(=O)O)n1Cc1ccc(C(=O)O)cc1", "Glutathione peroxidase 1 (Homo sapiens)", "No"],
  ["CCCCC(CC)COC(=O)c1ccccc1O (centres undefined)", "Glutathione peroxidase 1 (Homo sapiens)", "No"],
  ["CO/N=C(\\C(=O)N[C@@H]1C(=O)N2C(C(=O)O)=C(CSc3nc(=O)c(O)nn3C)CS[C@H]12)c1csc(N)n1", "Glutathione peroxidase 1 (Homo sapiens)", "Yes"],
  ["C[C@@H]1C[C@H]2[C@@H]3C[C@H](F)C4=CC(=O)C=C[C@]4(C)[C@@]3(F)[C@@H](O)C[C@]2(C)[C@@]1(O)C(=O)CO", "Glutathione peroxidase 1 (Homo sapiens)", "No"],
  ["NC(=O)NC(=O)Cc1ccccc1", "Glutathione peroxidase 1 (Homo sapiens)", "No"],
  ["CN(N=O)C(=O)N[C@@H]1[C@@H](O)[C@H](O)[C@@H](CO)O[C@@H]1O", "Glutathione peroxidase 1 (Homo sapiens)", "No"],
  ["Cc1c(O)cccc1C(=O)N[C@@H](CSc1ccccc1)[C@H](O)CN1C[C@H]2CCCC[C@H]2C[C@H]1C(=O)NC(C)(C)C", "Glutathione peroxidase 1 (Homo sapiens)", "No"],
  ["NC(=O)c1ncn([C@@H]2O[C@H](CO)[C@@H](O)[C@H]2O)n1", "Glutathione peroxidase 1 (Homo sapiens)", "No"],
  ["NC(=O)N/N=C/c1ccc([N+](=O)[O-])o1", "Glutathione peroxidase 1 (Homo sapiens)", "No"],
  ["CSc1ccc2c(c1)N(CCC1CCCCN1C)c1ccccc1S2 (centres undefined)", "Glutathione peroxidase 1 (Homo sapiens)", "No"],
  ["CCCCOC(=O)c1ccc(O)cc1", "Glutathione peroxidase 1 (Homo sapiens)", "No"],
  ["Nc1nc2c(ncn2CCC(CO)CO)c(=O)[nH]1", "Glutathione peroxidase 1 (Homo sapiens)", "No"]
]}
